measured on: hY2 (Homo sapiens, UniProt P49146)
Construct: expressed in transfected cells
Sequence (P49146 1-381): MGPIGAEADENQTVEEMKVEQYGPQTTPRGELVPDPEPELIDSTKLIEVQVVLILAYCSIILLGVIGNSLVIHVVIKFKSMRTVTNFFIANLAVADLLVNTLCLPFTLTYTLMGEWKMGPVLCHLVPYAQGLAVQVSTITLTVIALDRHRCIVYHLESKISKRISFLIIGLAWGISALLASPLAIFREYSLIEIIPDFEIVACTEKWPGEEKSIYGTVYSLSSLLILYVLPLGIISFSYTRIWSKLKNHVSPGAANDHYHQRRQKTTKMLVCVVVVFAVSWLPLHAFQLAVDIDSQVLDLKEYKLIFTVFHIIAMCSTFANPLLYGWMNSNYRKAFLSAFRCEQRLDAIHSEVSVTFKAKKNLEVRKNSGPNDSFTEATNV
assay text: Inositol phosphate accumulation, COS-7 cells expressing hY2 and chimeric Gi/q protein
Format: cell-based
experimental conditions: agonist, inositol phosphate turnover, COS7 cells, 1 h stimulation, duplicate, at least two experiments
measured property: EC50

QUERY: Item [K^30(PEG2)]hPP2‐36 (H-PLEPVYPGDNATPEQMAQYAADLRRYINK(MeO‑PEG 2 kDa)LTRPRY-NH2) [lysine 30 carries 2000 Da MeO-PEG] with hY2 (Homo sapiens, UniProt P49146) - EC50?
RESULT: > 1000 nM
